Quick list: Sequence Projection Score (SPS) per entry.
- Test system: Cholestasis Signature
- Setup conditions: rat, in vivo
Marks after values point to notes of the source that are not given here.

Examples from the recorded data:
stdin: Entry C#C[C@]1(OC(C)=O)CC[C@H]2[C@@H]3CCC4=CC(=O)CC[C@@H]4[C@H]3CC[C@@]21C [NORETHINDRONE ACETATE] has what Sequence Projection Score (SPS)?
stdout: 23*

stdin: Entry CC(C)Cc1ccc(C(C)C(=O)O)cc1 (centres unmarked) has what Sequence Projection Score (SPS)?
stdout: 33*

stdin: Entry CC(C)n1c(/C=C/C(O)CC(O)CC(=O)O)c(-c2ccc(F)cc2)c2ccccc21 (centres unmarked) has what Sequence Projection Score (SPS)?
stdout: 67*

stdin: Entry CCC(C)n1ncn(-c2ccc(N3CCN(c4ccc(OCC5COC(Cn6cncn6)(c6ccc(Cl)cc6Cl)O5)cc4)CC3)cc2)c1=O (centres unmarked) has what Sequence Projection Score (SPS)?
stdout: 17

We now examine a further compound.
stdin: Entry Oc1c(Cl)cc(Cl)cc1Sc1cc(Cl)cc(Cl)c1O has what Sequence Projection Score (SPS)?
stdout: 23*

The values you see were collected from patent US7396645B1.
